pIC50: −log10 of the molar value.
pIC50 values for Lysine-specific histone demethylase 1A (Homo sapiens, UniProt O60341), compiled from several publications.

Solved entries (count: 3):
- smiles_representation: "N#Cc1ccc(-c2cn(Cc3cccc(F)c3)c(=O)c(N3CCC(N)CC3)n2)cc1"
  pIC50: "> 7.00"
- smiles_representation: "Cc1c(C(=O)N[C@@H]2CCCN(C)C2)nc(-c2ccc(C#N)c(F)c2)n1-c1ccc2nn(C)cc2c1"
  pIC50: "> 7.00"
- smiles_representation: "COc1ccc(-n2c(-c3ccc(C#N)c(F)c3)nc(C(=O)N3CCC[C@@H](N)C3)c2Cl)cc1F"
  pIC50: "> 7.00"

We now examine a further compound.
Task item: # pIC50 lookup, item `NC[C@H]1CC[C@H](c2nc(C3(CN[C@@H]4C[C@H]4c4ccccc4)CC3)no2)CC1`
Reply: ≥ 7.30

###

pIC50: −log10 of the molar value.
Collected literature values of pIC50 measured for Lysine-specific histone demethylase 1A (Homo sapiens, UniProt O60341).

Some solved cases for reference:
- compound: "Cn1c(N2CCC(N)CC2)nc(-c2ccc(C#N)c(F)c2)c(-c2ccc(CO)cc2)c1=O"
  measurement: "> 7.00"
- compound: "COC(=O)c1ccc(CN2CCC(c3nc(C4(CN[C@H]5CC5c5ccccc5)CC4)no3)CC2)cc1 (single isomer, unassigned)"
  measurement: "6.30 to 7.00"
- compound: "Cn1nc2ccc(-n3nc(NC[C@H]4CCC[C@H](N)C4)cc3-c3ccc(C#N)c(F)c3)cc2n1"
  measurement: "> 6.30"
- compound: "CN1CCC(c2nc(C3(CN[C@H]4C[C@@H]4c4ccccc4)CC3)no2)CC1=O (some centres unmarked)"
  measurement: "6.30 to 7.00"
- compound: "COc1ccc(-c2c(-c3cccc(C#N)c3)nc(N3CCC(N)CC3)n(C)c2=O)cc1F"
  measurement: "< 5.00"

Task item: Form: Entry = `COCCn1c(-c2ccc(C)cc2)c(-c2ccc(C#N)c(F)c2)nc(NC[C@H]2CCNC2)c1=O` | System = Lysine-specific histone demethylase 1A (Homo sapiens, UniProt O60341) | pIC50 = ____
Reply: > 7.00

Task item: Likewise for c1ccc(C2C[C@@H]2NCC2(c3noc(CC4CCNCC4)n3)CC2)cc1 (some centres unmarked) ?
Reply: 6.30 to 7.00

Task item: What about `CN1CCN(c2nc(CCCN[C@@H]3C[C@H]3c3ccc(F)cc3)c[nH]c2=O)CC1` ?
Reply: 7.55

Task item: Lookup `N[C@H]1CCC[C@@H](c2nc(C3(CN[C@@H]4C[C@H]4c4ccccc4)CC3)no2)C1`
Reply: ≥ 7.30

Task item: Also need Cn1ncc2cc(-c3sc(N4CCC5CNCC5C4)nc3-c3ccc(C#N)cc3)ccc21 (centres unmarked) , thanks.
Reply: ≥ 7.00

Task item: Next: `N#Cc1ccc(-c2cc(NC[C@H]3CCC[C@H](N)C3)nn2-c2cccc(-c3cn[nH]c3)c2)cc1F`
Reply: > 6.30

###

Consider the following pIC50 data for Lysine-specific histone demethylase 1A (Homo sapiens), collected from several reports.
pIC50: −log10 of the molar value.

Reference set (10 entries):
- compound: "Cc1ccc(-c2c(-c3ccc(C#N)cc3)nc(N3CCC4CNCC4CC3)c(=O)n2C)cc1 (stereo not drawn)"
  pIC50: "> 7.00"
- compound: "COc1ccc(-c2c(-c3ccc(C#N)nc3)cc(NC[C@H]3CCNC3)c(=O)n2C)cc1"
  pIC50: "> 7.00"
- compound: "COc1ccc(-c2c(-c3ccc(C#N)c(F)c3)nc(N3CC[C@@H](N)[C@@H](F)C3)n(C)c2=O)cc1"
  pIC50: "> 7.00"
- compound: "O=C(O)[C@H](Cc1ccccc1)NCC1(CN[C@@H]2C[C@H]2c2ccccc2)CC1"
  pIC50: "6.30 to 7.00"
- compound: "COc1ccc(-n2cc(-c3cncc(N)c3C)c3cc(C#N)c(C)cc32)cc1"
  pIC50: 8.52
- compound: "Cn1cc2cc(-c3c(-c4ccc(C#N)c(F)c4)cc(C(=O)N4CCC[C@@H](N)C4)n3C[C@H](O)CO)ccc2n1"
  pIC50: "> 7.00"
- compound: "Cc1ccc(-c2cnc(N3CCC4(CCNC4)C3)nc2-c2ccc(C#N)cc2)cc1 (stereo not drawn)"
  pIC50: "> 7.00"
- compound: "N#CC1(CN[C@H]2CC2c2ccccc2)CC1 (stereo partly drawn)"
  pIC50: "6.30 to 7.00"
- compound: "COc1ccc(-n2nc(-c3ccc(C#N)cc3)cc2C(=O)N2CCCC(N)C2)cc1 (stereo not drawn)"
  pIC50: "> 6.30"
- compound: "N#Cc1ccc(-c2cc(C(=O)N3CCC[C@@H](N)C3)nn2-c2ccc(N3CCNC(=O)C3)cc2)cc1F"
  pIC50: "> 6.30"

Task item: Tell me the measured pIC50 of O=C(O)c1ccc(-c2nc(C3(CN[C@H]4CC4c4ccccc4)CC3)no2)cc1 (stereo partly drawn) , please.
Reply: ≥ 7.30

Task item: Try this compound too: C[C@@H]1CN(CC2(CN[C@H]3CC3c3ccccc3)CC2)C[C@H](C)N1 (stereo partly drawn)
Reply: 6.30 to 7.00

Task item: Entry to check: `Cc1ccc(-n2nc(-c3ccc(C#N)c(F)c3)cc2C(=O)N2CCC(N)CC2)cc1`
Reply: 5.00 to 6.00

Task item: # repeat for `CNC1CCN(c2nc(-c3ccc(C#N)c(F)c3)c(-c3ccc4c(cnn4C)c3)c(=O)n2C)CC1`
Reply: > 7.00

Task item: Next record, please: `Cc1ccc(-c2nc3cnn(C[C@H]4[C@@H]5CNC[C@@H]54)c3cc2-c2ccc(C#N)cc2)cc1`
Reply: > 7.00
